- Tested on: TK-10 renal
- ASSAY OVERVIEW: NCI tumour cell line growth inhibition, 48 h
RESULT TYPE: TGI

// COc1ccc(C2=NN(C(=O)c3cc(OC)c(OC)c(OC)c3)C(c3ccc(Cl)cc3)C2)cc1OC (stereo not drawn) : TGI value = > 81.6 µM

// CN[C@@H](C)[C@@H](N)c1ccccc1 : TGI value = > 100 µM

// O=C1Nc2ccccc2S/C1=C\c1cccc(C(F)(F)F)c1 : TGI value = > 100 µM

// CCN1C(NN)=NS(=O)(=O)c2ccccc21 : TGI value = > 100 µM

// CC1(C)CC(=O)C2=C(C1)S/C(=C1/SC3=C(S1)C(=O)CC(C)(C)C3)S2 : TGI value = > 251 µM

// Cc1cc(C2=NNC(=O)Cc3cc4c(cc32)OCCO4)cc(C)c1N : TGI value = > 100 µM

// COc1ccc2nc3cc(Cl)ccc3c(N3CCN(c4ccnc(N5CCOCC5)n4)CC3)c2c1 : TGI value = > 100 µM

// CCOC(=O)C(NCc1ccc2c(c1)OCO2)(NC(=O)c1ccccc1)C(F)(F)F (stereo not drawn) : TGI value = > 100 µM

// O=c1ssc(Cl)c1Nc1c(Cl)ssc1=O : TGI value = 33.3 µM

// O=C(O)[C@@H]1CCC(=O)N1C(c1ccc2c(c1)OCO2)c1ccc2c(c1)OCO2 : TGI value = > 100 µM

// O=c1cc(N2CCNCC2)oc2c(-c3ccccc3)cccc12 : TGI value = > 100 µM

// CC(=O)c1c(C)n(C)c2c1nnc1ccccc12 : TGI value = > 100 µM

// COc1ccc2c(c1)C(=O)c1c-2c(Nc2ccc(C(C)=O)cc2)nc2ccccc12 : TGI value = > 100 µM

// COC(=O)[C@H]1C[C@H]1NC(=O)C(CC(=O)OCc1ccccc1)NC(=O)OCc1ccccc1 (stereo partly drawn) : TGI value = > 100 µM

// CCOC(=O)CC1(O)CCCCC1(Sc1ccc(C)cc1)Sc1ccc(C)cc1 (stereo not drawn) : TGI value = > 100 µM

// O=C1C(C(c2ccccc2)N2CCOCC2)=C(O)C(c2ccccc2)N1c1ccccc1 (stereo not drawn) : TGI value = > 10 µM

// O=C(Nc1ccc(CN2CCOCC2)cc1)c1[nH]ncc1Nc1ncnc2sccc12 : TGI value = > 100 µM

// O=C(CCCN1CCOCC1)Nc1ccc(Cn2nnc3c2C(=O)c2nnn(Cc4ccc(NC(=O)CCCN5CCOCC5)cc4)c2C3=O)cc1 : TGI value = > 100 µM

// CCCCCCCCCCCCCCCC(=O)OCC1CCCN2CCCCC12 (stereo not drawn) : TGI value = > 100 µM

// Cc1cc(=O)[nH]o1 : TGI value = > 100 µM

// Oc1c(CN2CCCC2)cc(COCc2ccc(Br)cc2)c2cccnc12 : TGI value = 10.3 µM

// O=C(c1ccco1)c1nc2cc(F)ccc2[n+]([O-])c1C(F)(F)F : TGI value = > 100 µM

// O=C(Nc1ccc(Cl)cc1F)c1cc(I)ccc1O : TGI value = 16.1 µM

// O=C(CC(C(=O)c1ccco1)c1cccs1)c1cccs1 (stereo not drawn) : TGI value = > 100 µM

// C=CCCCC1SC2=C(CC)CCCN2C1=O (stereo not drawn) : TGI value = > 100 µM

// c1ccc(C2SCc3nc4cc5ccccc5cc4n32)cc1 (stereo not drawn) : TGI value = > 100 µM

// O=c1oc2nc(-c3ccccc3)cc(C(F)(F)F)c2n1Cc1ccccc1 : TGI value = > 100 µM

// Cc1cnc(-c2c[nH]c3ccccc23)nc1-c1c[nH]c2ccccc12 : TGI value = 18.1 µM

// CC(=O)O[C@]1(C)OC(=O)[C@@H](C)N1[N+](=O)[O-] : TGI value = > 100 µM

// Cc1ccc(Nc2n[nH]c(=S)s2)cc1 : TGI value = > 100 µM

// CC/C=C\C/C=C\C[C@H](O)C/C=C1/C(=O)C=C[C@@H]1C/C=C\CCCC(=O)O : TGI value = 21.1 µM

// NC(N)=NC(P(=O)(O)O)P(=O)(O)O : TGI value = > 100 µM

// Fc1ccc(OCc2nc3cc(C(F)(F)F)ccc3nc2-c2ccccc2)cc1 : TGI value = > 100 µM

// O=C1c2ccccc2C(=O)c2c(NCCNCCO)ccc(O)c21 : TGI value = 15.3 µM

// COc1ccc2c3c(n(Cc4ccccc4)c(=O)c2c1)-c1cc(OC)c(OC)cc1C3C (stereo not drawn) : TGI value = > 100 µM

// CCOC(=O)C1=C(C)NC2SC(=O)/C(=C\c3ccccc3O)N2C1c1ccccc1 (stereo not drawn) : TGI value = 49 µM

// O=C(O)c1cc2cc(c1)N=Cc1ccccc1OCc1cccc(n1)COc1ccccc1C=N2 : TGI value = > 25 µM

// Cn1cc(-c2cnc(-c3cn(C)c4ccccc34)cn2)c2ccccc21 : TGI value = > 100 µM

// O=C1/C(=C/c2ccc(Cl)cc2)N=C(c2ccccc2)N1c1nc2ccccc2s1 : TGI value = > 100 µM

// COc1cc(=O)n2c3ccccc3n(C)c2c1C#N : TGI value = > 100 µM

// O=C(CN1CCN(c2ccc(Cl)cc2)CC1)N1CCN(c2nnc(-c3ccc(Cl)cc3)c(-c3ccc(Cl)cc3)n2)CC1 : TGI value = > 100 µM

// COc1ccc(OC)c(C23CCCC(C2)N(C)CC3)c1 (stereo not drawn) : TGI value = > 100 µM

// O=[N+]([O-])c1ccc2c(N3CCC(CCCC4CCN(c5ncnc6cc([N+](=O)[O-])ccc56)CC4)CC3)ncnc2c1 : TGI value = > 100 µM
